- target: P. falciparum apicoplast DNA polymerase (Pf-apPOL) (Plasmodium falciparum)
- Sequence (Q8ILY1 entry or part of it): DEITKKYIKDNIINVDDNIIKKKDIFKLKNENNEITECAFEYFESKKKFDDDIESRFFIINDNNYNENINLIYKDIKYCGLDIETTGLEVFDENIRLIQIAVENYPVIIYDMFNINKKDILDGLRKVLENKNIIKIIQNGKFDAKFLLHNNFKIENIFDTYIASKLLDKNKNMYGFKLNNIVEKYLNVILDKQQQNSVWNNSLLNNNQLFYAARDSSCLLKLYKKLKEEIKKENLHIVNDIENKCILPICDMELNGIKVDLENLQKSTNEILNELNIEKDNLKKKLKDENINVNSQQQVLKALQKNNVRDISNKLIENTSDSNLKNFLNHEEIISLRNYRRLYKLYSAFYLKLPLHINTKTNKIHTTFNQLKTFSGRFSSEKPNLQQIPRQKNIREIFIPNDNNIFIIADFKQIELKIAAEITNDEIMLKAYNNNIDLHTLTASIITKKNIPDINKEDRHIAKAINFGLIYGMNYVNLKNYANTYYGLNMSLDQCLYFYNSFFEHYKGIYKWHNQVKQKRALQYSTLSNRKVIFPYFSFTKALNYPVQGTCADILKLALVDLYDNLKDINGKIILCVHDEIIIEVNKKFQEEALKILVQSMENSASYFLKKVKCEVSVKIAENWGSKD
- assay-method-text: Fluorescence-based high-throughput DNA polymerase assay (molecular beacon), primary screen and dose-response
- Type: biochemical
- measurement-context: DRC-2; read at 5'; concentration 40
Outcome label depends on % inhibition Apo pol 5' 40 relative to 40%: at/above gives 1 (yes), below gives 0 (no).

Study these solved cases before continuing.
INSERT INTO results (compound, qualitative_label) VALUES
  ('Cn1nc(-c2nc(-c3ccccc3)no2)c2c1CCN(C(=O)Cc1cccs1)C2', '0 (no)'),
  ('CCCc1ccc(Oc2coc3cc(OC)ccc3c2=O)cc1', '0 (no)'),
  ('Cc1ccsc1Cn1c(C)ccc1C', '1 (yes)'),
  ('Cc1nc(C)c2c(n1)N(CC1CCCCC1)C(=O)CC2', '0 (no)'),
  ('Cc1cc2[nH]c(C(=O)Nc3ccc(F)cc3)c(CN3CCOCC3)c2s1', '0 (no)'),
  ('N#Cc1c(O)nc(N2CCCCC2)nc1-c1ccc2c(c1)OCO2', '1 (yes)'),
  ('Cc1ccc(N2CCC(NC(=O)Cc3cccs3)C2=O)cc1C (centres unmarked)', '0 (no)'),
  ('C#CC(C=CC)OC(=O)c1ccccc1C(=O)O (centres unmarked)', '1 (yes)');

API: above_or_equal(metric=% inhibition Apo pol 5' 40, cutoff=40%) for item Cn1nc(-c2nnc(-c3ccccc3F)o2)c2c1CCN(C(=O)c1ccccc1Cl)C2
0 (no)

API: above_or_equal(metric=% inhibition Apo pol 5' 40, cutoff=40%) for item CC(=O)OCC1=C(C(=O)[O-])N2C(=O)[C@@H](NC(=O)Cc3cccs3)[C@H]2SC1.[Na+]
1 (yes)

API: above_or_equal(metric=% inhibition Apo pol 5' 40, cutoff=40%) for item Nc1cc(Oc2ccc(O)c(N)c2)ccc1O
1 (yes)

API: above_or_equal(metric=% inhibition Apo pol 5' 40, cutoff=40%) for item CC(C)CC(C(=O)O)N1C(=O)C2C3C=CC(C2C1=O)C1C(=O)N(C(CC(C)C)C(=O)O)C(=O)C31 (centres unmarked)
0 (no)

API: above_or_equal(metric=% inhibition Apo pol 5' 40, cutoff=40%) for item COc1ccccc1CC(=O)N1CCc2c(nc3cc(-c4ccccc4Cl)[nH]n3c2=O)C1
1 (yes)

----------
- target: P. falciparum apicoplast DNA polymerase (Pf-apPOL) (Plasmodium falciparum)
- assay-method-text: Fluorescence-based high-throughput DNA polymerase assay (molecular beacon), primary screen and dose-response
- Assay type: biochemical
- measurement-context: DRC-2; read at 180'; concentration 80
% inhibition apPOL 180' 80 values by entry
Write down the numeric answer in % and omit the unit.

INSERT INTO measurements (compound, readout, assay_value) VALUES
  ('Nc1cc(Oc2ccc(O)c(N)c2)ccc1O', '% inhibition apPOL 180'' 80', 75);

Form field: reported % inhibition apPOL 180' 80 of O=C1CSC2=NC3=C(CCc4ccccc43)C(c3cccs3)N12 (stereo not drawn)
55

Form field: reported % inhibition apPOL 180' 80 of Cc1ccc(N2CCC(NC(=O)Cc3cccs3)C2=O)cc1C (stereo not drawn)
55

----------
- target: P. falciparum apicoplast DNA polymerase (Pf-apPOL) (Plasmodium falciparum)
- assay-method-text: Fluorescence-based high-throughput DNA polymerase assay (molecular beacon), primary screen and dose-response
- Assay type: biochemical
- measurement-context: DRC-1; 90'; concentration 5
% inhibition Apol 90' values by entry
Could you give the number and then its unit, please?

INSERT INTO results (compound, target, assay_value) VALUES
  ('Cc1ncc(CSc2nc(C(C)(C)C)cs2)c(CO)c1O', 'P. falciparum apicoplast DNA polymerase (Pf-apPOL) (Plasmodium falciparum)', '-0.3111%'),
  ('Cc1cccc(-c2nnc3ccc(NS(=O)(=O)c4ccc(C)c(C)c4)nn23)c1', 'P. falciparum apicoplast DNA polymerase (Pf-apPOL) (Plasmodium falciparum)', '6.674%'),
  ('O=C(O)CCS(=O)(=O)c1ccc(-c2ccc(S(=O)(=O)CCC(=O)O)cc2)cc1', 'P. falciparum apicoplast DNA polymerase (Pf-apPOL) (Plasmodium falciparum)', '20.8234%'),
  ('O=C(Cn1ccc2c(=O)[nH]ccc21)Nc1cccc(Cl)c1 [Molecule 23, O=C(Cn1ccc2c1cc[nH]c2=O)Nc1cccc(c1)Cl]', 'P. falciparum apicoplast DNA polymerase (Pf-apPOL) (Plasmodium falciparum)', '4.6922%'),
  ('CSC(C)C(=O)C=CN(C)C (centres unmarked)', 'P. falciparum apicoplast DNA polymerase (Pf-apPOL) (Plasmodium falciparum)', '-2.761%');

Which measured % inhibition Apol 90' belongs to Cc1ccccc1C(=O)N1CCc2c(nc3cc(-c4ccccc4)[nH]n3c2=O)C1 , tested on P. falciparum apicoplast DNA polymerase (Pf-apPOL) (Plasmodium falciparum)?
3.445%

Which measured % inhibition Apol 90' belongs to COc1ccc(C(=O)Nc2cccc(-c3nc4ncccc4o3)c2)cc1[N+](=O)[O-] , tested on P. falciparum apicoplast DNA polymerase (Pf-apPOL) (Plasmodium falciparum)?
4.0361%

Which measured % inhibition Apol 90' belongs to COc1ccc(NC(=O)Cn2ccc3c(=O)[nH]ccc32)cc1Cl [Molecule 10, COc1ccc(cc1Cl)NC(=O)Cn1ccc2c1cc[nH]c2=O] , tested on P. falciparum apicoplast DNA polymerase (Pf-apPOL) (Plasmodium falciparum)?
26.4531%
